Target: T1, mouse Cdt1^172-368 (mouse, UniProt Q8R4E9 172-368)
T1 construct: Cdt1, mouse, residues 172-368; Inserted between the NdeI and KpnI sites of pET Duet 1; source: E. coli BL21, purified, dialyzed
T1 sequence (looked up): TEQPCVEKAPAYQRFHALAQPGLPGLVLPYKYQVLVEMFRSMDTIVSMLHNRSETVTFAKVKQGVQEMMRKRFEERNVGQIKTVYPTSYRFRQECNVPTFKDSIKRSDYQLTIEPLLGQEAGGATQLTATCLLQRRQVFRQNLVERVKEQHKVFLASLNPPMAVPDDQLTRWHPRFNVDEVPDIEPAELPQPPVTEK
Experiment: ITC; MicroCal ITC200, 18 °C; 20 mM Na-HEPES pH 7.5, 300 mM NaCl, 7 mM β-mercaptoethanol; 17 injections of Geminin (WT 0.432 mM, AWA 0.297 mM) into 200 µL Cdt1 (0.044 mM)
Conditions: both partners purified
pKd: −log10 of the molar value.
ENDPOINT NAME: pKd

BINDER: mouse Geminin^79-157 wild type (domain or fragment, UniProt O88513 79-157, looked up, Geminin, mouse, residues 79-157 (methods); Limits differ between methods (79-157) and legend (72-157); also called Geminin^WT; source: E. coli BL21, purified over nickel-NTA agarose, dialyzed) TQEAFDLISKENPSSQYWKEVAEQRRKALYEALKENEKLHKEIEQKDSEIARLRKENKDLAEVAEHVQYMAEVIERLSN
DATA VALUE: 6.54
